meta.source: the Kinase Knowledgebase extract (Sharma et al. 2016)

Target: MAPK14 (murine)
Test: Inhibition of MAPK14 Kinase Activity
Parameter measured: IC50 (nM)

>  <Smiles notation>
COc1ccc(/C=C/C2(O)CCN(C)CC2)cc1C(=O)c1ccc(Nc2ccc(F)cc2F)cc1

>  <IC50 / nM>
1

$$$$
>  <Smiles notation>
COc1ccc(C#CC(C)(C)N)cc1C(=O)c1ccc(Nc2ccc(F)cc2F)nc1

>  <IC50 / nM>
8

$$$$
>  <Smiles notation>
COc1ccc(C#CC(C)(C)O)cc1C(=O)c1ccc(Nc2ccc(F)cc2F)nc1

>  <IC50 / nM>
54

$$$$
>  <Smiles notation>
O=C(c1ccc(Nc2ccc(F)cc2F)nc1)c1ccccc1Cl

>  <IC50 / nM>
101

$$$$
>  <Smiles notation>
Cc1nc2cc(Cl)c(C(=O)c3ccc(Nc4ccc(F)cc4F)nc3)cc2[nH]1

>  <IC50 / nM>
8

$$$$

1. COc1cc2nc(C)[nH]c2cc1C(=O)c1ccc(Nc2ccc(F)cc2F)nc1
2. COc1ccc(C#CC(C)(C)N)cc1C(=O)c1ccc(Nc2ccc(F)cc2F)cc1
INPUT: Return label of the item with the larger IC50. Candidates: 1 , 2 . Use the label to indicate which entry you chose.
OUTPUT: 1
(1: 21 nM, 2: 14 nM)

I. O=C(c1ccc(Nc2ccc(F)cc2F)nc1)c1cc(Br)ccc1Cl
II. CC(C)(N)C#Cc1ccc(Cl)c(C(=O)c2ccc(Nc3ccc(F)cc3F)cc2)c1
INPUT: Min IC50? I | II Use the label to indicate which entry you chose.
OUTPUT: II

P. COc1ccc(CCC(C)(C)N)cc1C(=O)c1ccc(Nc2ccc(F)cc2F)cc1
Q. O=C(c1ccc(Nc2ccc(F)cc2F)cc1)c1ccccc1Cl
R. CC(C)(N)C#Cc1ccc(Cl)c(C(=O)c2ccc(Nc3ccc(F)cc3F)nc2)c1
INPUT: # rank by IC50, ascending (min first) # respond with the labels, arranged in the requested order
OUTPUT: Q, R, P
(Q: 11 nM, R: 19 nM, P: 113 nM)

----------
Biological target: MAPK14 (murine)
Test: Inhibition of MAPK14 Kinase Activity
pIC50: −log10 of the molar value.
Parameter measured: pIC50

>  <Smiles notation>
Cc1nc2cc(Cl)c(C(=O)c3ccc(Nc4ccc(F)cc4F)cc3)cc2[nH]1

>  <pIC50>
9.15

$$$$

P. CC(C)(N)CCc1ccc(Cl)c(C(=O)c2ccc(Nc3ccc(F)cc3F)nc2)c1
Q. COc1cc2nc(C)[nH]c2cc1C(=O)c1ccc(Nc2ccc(F)cc2F)cc1
R. COc1ccccc1C(=O)c1ccc(Nc2ccc(F)cc2F)cc1
S. COc1ccc(CCC(C)(C)O)cc1C(=O)c1ccc(Nc2ccc(F)cc2F)nc1
INPUT: # rank by pIC50, ascending (min first) # respond with the labels, arranged in the requested order
OUTPUT: S, P, R, Q
